molecular target: EPHB2 (UniProt P29323); assay: phosphorylation enrichment, bacterial display (enrichment ratio); higher = better substrate or ligand; peptides without Tyr show the background
Sequence (P29323 whole entry, looked up): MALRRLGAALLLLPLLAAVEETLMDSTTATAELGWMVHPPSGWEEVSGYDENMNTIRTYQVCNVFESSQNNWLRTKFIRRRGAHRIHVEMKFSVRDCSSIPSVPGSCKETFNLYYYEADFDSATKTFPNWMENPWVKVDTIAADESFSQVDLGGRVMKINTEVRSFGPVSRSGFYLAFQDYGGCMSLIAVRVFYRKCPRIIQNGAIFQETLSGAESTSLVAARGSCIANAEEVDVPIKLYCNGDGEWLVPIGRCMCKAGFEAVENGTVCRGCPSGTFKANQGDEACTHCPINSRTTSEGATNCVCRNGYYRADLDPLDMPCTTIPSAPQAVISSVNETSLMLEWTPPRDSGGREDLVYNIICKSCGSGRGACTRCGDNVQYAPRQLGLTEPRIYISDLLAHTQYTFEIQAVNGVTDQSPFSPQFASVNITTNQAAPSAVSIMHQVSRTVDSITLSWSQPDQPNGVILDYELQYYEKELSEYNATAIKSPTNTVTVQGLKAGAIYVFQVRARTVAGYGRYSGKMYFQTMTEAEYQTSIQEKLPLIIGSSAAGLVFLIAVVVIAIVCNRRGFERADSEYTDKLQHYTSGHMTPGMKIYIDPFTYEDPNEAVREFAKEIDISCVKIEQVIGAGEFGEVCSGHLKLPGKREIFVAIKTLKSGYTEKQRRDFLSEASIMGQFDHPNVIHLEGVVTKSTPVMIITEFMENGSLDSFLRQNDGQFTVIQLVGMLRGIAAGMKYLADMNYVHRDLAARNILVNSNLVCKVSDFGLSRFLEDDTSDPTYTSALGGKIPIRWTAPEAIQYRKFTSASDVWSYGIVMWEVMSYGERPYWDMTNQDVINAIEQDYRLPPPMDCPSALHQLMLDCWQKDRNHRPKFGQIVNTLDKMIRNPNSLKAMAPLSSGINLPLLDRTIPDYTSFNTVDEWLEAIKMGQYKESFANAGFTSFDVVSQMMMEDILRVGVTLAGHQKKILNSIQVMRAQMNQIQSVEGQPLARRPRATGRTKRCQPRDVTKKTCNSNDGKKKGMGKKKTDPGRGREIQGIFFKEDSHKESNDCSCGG
metric name: phosphorylation enrichment

[
  {
    "residues": "VGTKRYMALEV [ACVRL1_Y375_P378L]",
    "metric name": "phosphorylation enrichment",
    "test result": 0.451
  },
  {
    "residues": "SFLFHYADDSF [RAB3C_Y50_R49H]",
    "metric name": "phosphorylation enrichment",
    "test result": 0.549
  },
  {
    "residues": "LYSGDCYRIQG [DDR2_Y740_Y740C]",
    "metric name": "phosphorylation enrichment",
    "test result": 1.3
  },
  {
    "residues": "SVVAPYEPPEV [TP53_Y220_V218A]",
    "metric name": "phosphorylation enrichment",
    "test result": 0.617
  },
  {
    "residues": "KNEVLYDEENH [ARFGEF1_Y314_G316E]",
    "metric name": "phosphorylation enrichment",
    "test result": 0.618
  },
  {
    "residues": "PPPELYFVKVD [TERT_Y707]",
    "metric name": "phosphorylation enrichment",
    "test result": 0.49
  },
  {
    "residues": "RGVVMYTSKDR [ZG16B_Y136_M133V]",
    "metric name": "phosphorylation enrichment",
    "test result": 0.724
  }
]

###

The following sequences are shown together with reported SH2 binding enrichment values.
biological target: c-Src SH2; assay: SH2 binding enrichment of the phosphorylated peptide, bacterial display (enrichment ratio); higher = better substrate or ligand; peptides without Tyr show the background;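 note: peptide library displayed on the E. coli surface as eCPX fusions, selected cells deep-sequenced, score is each peptide's frequency after selection divided by its frequency in the input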
metric name: SH2 binding enrichment

[
  {
    "residues": "SSTASYFKAPG [RFX2_Y108_E110K]",
    "metric name": "SH2 binding enrichment",
    "test result": 0.608
  },
  {
    "residues": "RDMNAYISPSP [MMAA_Y207_R209S]",
    "metric name": "SH2 binding enrichment",
    "test result": 0.567
  },
  {
    "residues": "KPGVNYFFQVS",
    "metric name": "SH2 binding enrichment",
    "test result": 0.606
  }
]

###

target: Hck (UniProt P08631); experiment: phosphorylation enrichment, bacterial display (enrichment ratio); higher = better substrate or ligand; peptides without Tyr show the background
Sequence (P08631 whole entry, looked up): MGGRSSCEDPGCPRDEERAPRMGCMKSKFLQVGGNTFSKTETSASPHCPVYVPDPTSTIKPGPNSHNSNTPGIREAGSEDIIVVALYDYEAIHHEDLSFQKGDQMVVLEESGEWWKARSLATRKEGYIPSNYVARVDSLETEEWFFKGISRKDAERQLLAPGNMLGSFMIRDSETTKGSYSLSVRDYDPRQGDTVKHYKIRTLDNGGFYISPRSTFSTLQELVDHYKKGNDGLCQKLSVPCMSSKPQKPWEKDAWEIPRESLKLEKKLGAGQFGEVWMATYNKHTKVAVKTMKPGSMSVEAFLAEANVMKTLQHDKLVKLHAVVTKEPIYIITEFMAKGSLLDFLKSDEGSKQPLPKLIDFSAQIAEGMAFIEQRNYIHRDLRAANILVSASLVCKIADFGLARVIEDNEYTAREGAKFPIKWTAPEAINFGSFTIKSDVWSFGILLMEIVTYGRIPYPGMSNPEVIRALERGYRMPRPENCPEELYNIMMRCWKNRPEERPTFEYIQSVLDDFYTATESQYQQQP

[
  {
    "residues": "GRLGEYDIDEV [SMS_Y134_V132G]",
    "test target": "Hck (UniProt P08631)",
    "phosphorylation enrichment": 0.647
  },
  {
    "residues": "EKKDVYKAGEQ [CFH_Y1008]",
    "test target": "Hck (UniProt P08631)",
    "phosphorylation enrichment": 0.386
  },
  {
    "residues": "KQRKEYMHRRQ [IQGAP2_Y710]",
    "test target": "Hck (UniProt P08631)",
    "phosphorylation enrichment": 0.526
  },
  {
    "residues": "NKFTTYLPWLP [C9orf24_Y126_R129W_YF]",
    "test target": "Hck (UniProt P08631)",
    "phosphorylation enrichment": 8.27
  },
  {
    "residues": "FFHCTYKKRMI [CLEC12A_Y242_YF]",
    "test target": "Hck (UniProt P08631)",
    "phosphorylation enrichment": 0.468
  },
  {
    "residues": "EAESWYQTKYE [KRT75_Y342]",
    "test target": "Hck (UniProt P08631)",
    "phosphorylation enrichment": 0.545
  },
  {
    "residues": "FDDGKYVFVVT [RPS6KA3_Y488_YF]",
    "test target": "Hck (UniProt P08631)",
    "phosphorylation enrichment": 0.572
  },
  {
    "residues": "LTVVIYVLVGR [EPHA3_Y561_I564V]",
    "test target": "Hck (UniProt P08631)",
    "phosphorylation enrichment": 0.168
  },
  {
    "residues": "DRSSLYLVAGP [KIAA1614_Y1083_N1078D]",
    "test target": "Hck (UniProt P08631)",
    "phosphorylation enrichment": 0.842
  },
  {
    "residues": "LIGRRCDDPEV [HSPA9_Y128_Y128C]",
    "test target": "Hck (UniProt P08631)",
    "phosphorylation enrichment": 0.575
  },
  {
    "residues": "MFCASYDTKQE [F10_Y407_G406S]",
    "test target": "Hck (UniProt P08631)",
    "phosphorylation enrichment": 0.554
  },
  {
    "residues": "VNKLVYENING [FRS2_Y306]",
    "test target": "Hck (UniProt P08631)",
    "phosphorylation enrichment": 2.67
  },
  {
    "residues": "MASTSYDYCRV [BST2_Y6]",
    "test target": "Hck (UniProt P08631)",
    "phosphorylation enrichment": 0.905
  },
  {
    "residues": "GKSHIYFWTLD [EML2_Y230_E235D]",
    "test target": "Hck (UniProt P08631)",
    "phosphorylation enrichment": 0.521
  },
  {
    "residues": "HRDDGYMPMSP [IRS1_Y612_T608R]",
    "test target": "Hck (UniProt P08631)",
    "phosphorylation enrichment": 0.488
  },
  {
    "residues": "RVLKLYGCSPS [ASTL_Y279]",
    "test target": "Hck (UniProt P08631)",
    "phosphorylation enrichment": 0.564
  },
  {
    "residues": "YEEDSYVTRSQ [RET_Y905_K907T]",
    "test target": "Hck (UniProt P08631)",
    "phosphorylation enrichment": 0.543
  },
  {
    "residues": "SWKRRYFLLWA [APBB1IP_Y331_R335W]",
    "test target": "Hck (UniProt P08631)",
    "phosphorylation enrichment": 0.497
  }
]
